mass density values, listed per item
Condition Context: 333.15 K; 100 kPa; Liquid; Vibrating tube method
# unit: kg/m3 | format: bare number

mass density in this record for CCCC[n+]1cccc(C)c1.N#C[N-]C#N [1-butyl-3-methylpyridinium dicyanamide] : 1027.63

mass density in this record for CCCC[n+]1ccccc1.F[B-](F)(F)F [1-butylpyridinium tetrafluoroborate] : 1190.07

* * *

mass density values, listed per item
Condition Context: 283.15 K; 20000 kPa; Liquid; Vibrating tube method
± gives the expanded uncertainty stated by the source.

Worked examples, 2 compounds total:
Compound	Reported Measurement
CCCC[n+]1cccc(C)c1.N#C[N-]C#N [1-butyl-3-methylpyridinium dicyanamide]	1066.19 ± 1 kg/m3
CCCC[n+]1ccccc1.F[B-](F)(F)F [1-butylpyridinium tetrafluoroborate]	1233.82 ± 0.6 kg/m3

Now, please, on to the next compound.
mass density in this record for CCCCCCCC[n+]1cccc(C)c1.F[B-](F)(F)F [N-octyl-3-methylpyridinium tetrafluoroborate] : 1115.53 ± 1.2 kg/m3
